target.system: 5-hydroxytryptamine receptor 2A (Homo sapiens); also: assay procedure not described here
Sequence (P28223 whole entry): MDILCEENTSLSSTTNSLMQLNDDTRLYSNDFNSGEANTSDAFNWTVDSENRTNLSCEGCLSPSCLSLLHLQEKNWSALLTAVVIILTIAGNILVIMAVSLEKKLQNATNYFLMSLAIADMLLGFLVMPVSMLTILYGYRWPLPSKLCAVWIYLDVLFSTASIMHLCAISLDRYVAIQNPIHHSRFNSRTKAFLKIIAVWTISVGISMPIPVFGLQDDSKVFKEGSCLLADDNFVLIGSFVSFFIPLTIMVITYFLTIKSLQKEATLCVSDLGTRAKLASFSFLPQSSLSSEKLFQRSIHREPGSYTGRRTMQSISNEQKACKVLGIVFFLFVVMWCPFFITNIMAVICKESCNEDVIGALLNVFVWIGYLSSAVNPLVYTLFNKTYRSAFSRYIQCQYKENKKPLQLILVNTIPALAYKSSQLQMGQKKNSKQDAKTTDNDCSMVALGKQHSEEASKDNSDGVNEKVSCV
Type: functional, cell-based
measured.quantity: AC50

> print(dat)
                                   compound  measured.quantity  measured
1  CCOC(=O)Nc1ccc(NCc2ccc(F)cc2)nc1N [FLUPIRTINE]               AC50   > 10 µM
2  CCn1c(=O)c2c(nc(/C=C/c3ccc(OC)c(OC)c3)n2C)n(CC)c1=O [ISTRADEFYLLINE]               AC50   > 30 µM
3  C[C@]12CCC(=O)C=C1C=C[C@@H]1[C@@H]2CC[C@@]2(C)[C@H]1CC[C@@]21CCC(=O)O1 [CANRENONE]               AC50   > 30 µM
4  CC(=O)OCC1=C(C(=O)O)N2C(=O)[C@@H](NC(=O)Cc3cccs3)[C@H]2SC1 [CEPHALOTHIN]               AC50   > 30 µM
